system: HCC1428 (Breast Carcinoma); test: combination Emax (second highest fraction inhibited in the dose matrix, 72 h); higher = more inhibition; extreme values may be limits of the assay
The label depends only on combination Emax: met if it is at least 0.7, not met if it is smaller.

Examples from the recorded data:
compound	group
Cc1c2c(nn1C)CSCc1cc(n(C)n1)CSc1cc(c3ccccc3c1)OCCCc1c(C(=O)O)n(C)c3c-2c(Cl)ccc13 [AZD5991] + CC1(C)CCC(CN2CCN(c3ccc(C(=O)NS(=O)(=O)c4ccc(NCC5CCOCC5)c([N+](=O)[O-])c4)c(Oc4cnc5[nH]ccc5c4)c3)CC2)=C(c2ccc(Cl)cc2)C1 [Venetoclax] (first compound max 1 µM, 7x7, partner max 1 µM)	met
CN(CCO)CC[C@H](CSc1ccccc1)Nc1ccc(S(=O)(=O)NC(=O)c2ccc(N3CCC([C@@H](O)c4ccccc4-c4ccc(Cl)cc4)CC3)cc2)cc1S(=O)(=O)C(F)(F)F [AZD4320] + C1CN(CCC1(C(=O)N[C@@H](CCO)C2=CC=C(C=C2)Cl)N)C3=NC=NC4=C3C=CN4 [Capivasertib] (first compound max 1 µM, 7x7, partner max 3 µM)	not met
Cc1cc2ncnn2cc1Nc1ncc2c(n1)n(C1CCOCC1)c(=O)n2C [AZD7648] + O=C(c1cc(Cc2n[nH]c(=O)c3ccccc23)ccc1F)N1CCN(C(=O)C2CC2)CC1 [Olaparib] (first compound max 10 µM, 7x7, partner max 10 µM)	not met
COc1nnc2ccc(N3CCC(c4ccc(OCCN5CCN(C)C(=O)[C@H]5C)cc4)CC3)nn12 [AZD5153] + C[C@@H]1COCCN1C2=NC(=NC(=C2)C3(CC3)[S@](=N)(=O)C)C4=C5C=CNC5=NC=C4 [AZD6738] (first compound max 1 µM, 7x7, partner max 10 µM)	met
COc1nnc2ccc(N3CCC(c4ccc(OCCN5CCN(C)C(=O)[C@H]5C)cc4)CC3)nn12 [AZD5153] + CN(CC[C@H](CSC1=CC=CC=C1)NC2=C(C=C(C=C2)S(=O)(=O)NC(=O)C3=CC=C(C=C3)N4CCC(CC4)[C@H](C5=CC=CC=C5C6=CC=C(C=C6)Cl)O)S(=O)(=O)C(F)(F)F)CCO [AZD4320] (first compound max 1 µM, 7x7, partner max 1 µM)	met

Could you now look at the following compound, please?
hey, is combination Emax for this one >= 0.7? CCc1c2c(nc3ccc(O)cc13)-c1cc3c(c(=O)n1C2)COC(=O)[C@]3(O)CC [SN-38] + CN(C)CCCOc1ccc(-c2ccc3ncc4c(c3c2)n(C2CCOCC2)c(=O)n4C)cn1 [AZD0156] (first compound max 0.3 µM, 7x7, partner max 1 µM)
not met
